- target.or.system: striatal D2 receptors (Rattus norvegicus, UniProt P61169)
- Construct: each rat underwent CO2 narcosis and cervical dislocation; the striata were removed
- Sequence (P61169 whole entry): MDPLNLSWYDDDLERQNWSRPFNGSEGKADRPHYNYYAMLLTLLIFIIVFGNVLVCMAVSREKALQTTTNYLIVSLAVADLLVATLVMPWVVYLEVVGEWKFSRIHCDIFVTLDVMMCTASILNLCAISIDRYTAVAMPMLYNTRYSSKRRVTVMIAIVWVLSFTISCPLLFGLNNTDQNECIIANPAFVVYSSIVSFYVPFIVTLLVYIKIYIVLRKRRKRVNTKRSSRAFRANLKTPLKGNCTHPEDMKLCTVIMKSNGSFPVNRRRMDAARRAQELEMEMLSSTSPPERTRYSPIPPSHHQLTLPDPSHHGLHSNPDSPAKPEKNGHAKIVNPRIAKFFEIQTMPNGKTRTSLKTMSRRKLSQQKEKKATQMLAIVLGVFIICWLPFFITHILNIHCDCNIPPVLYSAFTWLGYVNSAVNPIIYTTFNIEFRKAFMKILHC
- test: [3H]PHNO binding to striatal D2 receptors
- applied.conditions: control striata
metric: pKd
Friendly reminder that pKd comes from taking -log10 of the concentration in mol/L.

# input I would be grateful if you could share the reported pKd for CCCN1CCOC2c3cc(O)ccc3CCC21 (stereo not shown) [[^3H]PHNO, [+]-4-propyl-9-hydroxynaphthoxazine] .
# output 9.15
